# Method Description: Solubility in water
# Details: 20 °C
Measurement Label: solubility (µg/mL)
Unit µg/mL implied. Number only.

Ask | Query: solubility; subject: [CH3][Ge]([CH3])([CH3])[c]1ccc2ccccc2c1
Reply | 6

---

Consider the following molecules; for each one, report its Viscosity at 20° C..
# Method Description: Viscosity at 20° C.
# Type: physicochemical
# Details: neat compound
Unit cSt implied. Number only.

Ask | Query: Viscosity at 20° C.; subject: [CH3][Ge]([CH3])([CH3])[c]1ccc2ccccc2c1 [VI, 2-trimethylgermane naphthalene]
Reply | 6.1

Ask | What about C[CH2][Ge]([CH2]C)([CH2]C)[c]1ccc2ccccc2c1 [VII, 2-triethylgermane naphthalene] ?
Reply | 10.6

Ask | What about C[Si](C)(C)c1ccc2ccccc2c1 [VIII, 2-trimethylsilane naphthalene] ?
Reply | 8.1

Ask | What about CCc1ccc2ccccc2c1 [XIII, 2-ethylnaphthalene] ?
Reply | 3.9

Ask | What about CCCC[Si](C)(C)c1ccc2ccccc2c1 [IX, 2-dimethylbutylsilane naphthalene] ?
Reply | 14.9

Ask | What about Fc1cccc2ccccc12 [XII, 1-fluoronapthalene] ?
Reply | 2.1

Ask | What about CCCCCCCC[Si](C)(C)c1ccc2ccccc2c1 [XI, 2-dimethyloctylsilane naphthalene] ?
Reply | 25.9

Ask | What about c1ccc(Sc2ccc3ccccc3c2)cc1 [X, 2-phenylsulfur naphthalene] ?
Reply | 33.8
